AC50 values, listed per item
biological target: UniProt:Q08499; format: functional
Sequence (Q08499 whole entry): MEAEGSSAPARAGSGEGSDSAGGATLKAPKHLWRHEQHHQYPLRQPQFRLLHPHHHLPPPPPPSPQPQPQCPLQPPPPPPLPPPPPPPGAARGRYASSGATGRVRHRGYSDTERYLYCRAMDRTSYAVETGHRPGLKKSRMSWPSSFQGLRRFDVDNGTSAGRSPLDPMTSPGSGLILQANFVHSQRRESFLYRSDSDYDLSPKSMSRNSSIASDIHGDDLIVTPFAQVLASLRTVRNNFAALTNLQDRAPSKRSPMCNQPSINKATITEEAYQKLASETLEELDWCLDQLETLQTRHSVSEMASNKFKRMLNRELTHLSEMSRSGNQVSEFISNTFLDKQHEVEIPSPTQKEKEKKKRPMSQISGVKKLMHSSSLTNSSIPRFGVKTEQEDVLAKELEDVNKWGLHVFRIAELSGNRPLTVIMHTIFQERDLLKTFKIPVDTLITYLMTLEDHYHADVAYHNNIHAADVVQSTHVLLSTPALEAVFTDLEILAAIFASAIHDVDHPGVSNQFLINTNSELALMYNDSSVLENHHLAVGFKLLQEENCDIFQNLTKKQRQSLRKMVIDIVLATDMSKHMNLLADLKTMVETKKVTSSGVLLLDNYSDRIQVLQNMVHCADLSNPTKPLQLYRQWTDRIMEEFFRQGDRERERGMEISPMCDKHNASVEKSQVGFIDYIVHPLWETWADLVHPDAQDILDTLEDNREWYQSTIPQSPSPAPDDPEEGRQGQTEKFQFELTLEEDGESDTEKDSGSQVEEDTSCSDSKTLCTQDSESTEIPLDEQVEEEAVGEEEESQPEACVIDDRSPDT

Previously resolved entries follow.
Compound	Assay readout	Result
CCCCCCOC(=O)CCC(=O)CN [HEXAMINOLEVULINATE]	AC50	> 30 µM
CNC(=O)c1cc(Oc2ccc(NC(=O)Nc3ccc(Cl)c(C(F)(F)F)c3)c(F)c2)ccn1	AC50	> 30 µM

Would you kindly look at the next entry?
Data point: COCCOC(=O)C1=C(C)NC(C)=C(C(=O)OC/C=C/c2ccccc2)C1c1cccc([N+](=O)[O-])c1 (stereo not drawn) ; AC50 = 8.2 µM

====

target: Alpha-1A adrenergic receptor (Homo sapiens, UniProt P35348); assay type: functional, cell-based; also: assay procedure not described here
Sequence (P35348 whole entry): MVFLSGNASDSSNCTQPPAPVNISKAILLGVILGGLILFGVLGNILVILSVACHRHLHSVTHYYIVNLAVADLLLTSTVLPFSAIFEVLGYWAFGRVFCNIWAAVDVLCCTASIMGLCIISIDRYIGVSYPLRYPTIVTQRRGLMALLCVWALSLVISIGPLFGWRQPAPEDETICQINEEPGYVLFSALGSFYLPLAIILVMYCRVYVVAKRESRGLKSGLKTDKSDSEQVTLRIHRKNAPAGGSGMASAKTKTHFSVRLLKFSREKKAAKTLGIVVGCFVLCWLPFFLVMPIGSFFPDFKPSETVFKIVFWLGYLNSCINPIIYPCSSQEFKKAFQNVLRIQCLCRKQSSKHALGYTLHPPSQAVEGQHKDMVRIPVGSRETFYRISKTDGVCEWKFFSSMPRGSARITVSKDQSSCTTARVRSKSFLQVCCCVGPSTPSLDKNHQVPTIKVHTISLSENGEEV
AC50 values, listed per item

Compound	Test target	AC50
CCC(=O)OCC(=O)[C@@]1(OC(=O)CC)[C@@H](C)C[C@H]2[C@@H]3CCC4=CC(=O)C=C[C@]4(C)[C@@]3(F)[C@@H](O)C[C@@]21C [BETAMETHASONE DIPROPIONATE]	Alpha-1A adrenergic receptor (Homo sapiens, UniProt P35348)	> 30 µM
CCOC(=O)Nc1ccc2c(c1)N(C(=O)CCN1CCOCC1)c1ccccc1S2 [MORICIZINE]	Alpha-1A adrenergic receptor (Homo sapiens, UniProt P35348)	> 30 µM

Would you kindly look at the next entry?
Field AC50 (Alpha-1A adrenergic receptor (Homo sapiens, UniProt P35348)), entry CC[C@H]1OC(=O)[C@H](C)[C@@H](O[C@H]2C[C@@](C)(OC)[C@@H](O)[C@H](C)O2)[C@H](C)[C@@H](O[C@@H]2O[C@H](C)C[C@H](N(C)C)[C@H]2O)[C@](C)(OC)C[C@@H](C)C(=O)[C@H](C)[C@@H](O)[C@]1(C)O [CLARITHROMYCIN] : > 30 µM

Measured values drawn from ChEMBL document CHEMBL5291721 for this set.
